Biological target: UniProt P08684
Sequence (P08684 whole entry): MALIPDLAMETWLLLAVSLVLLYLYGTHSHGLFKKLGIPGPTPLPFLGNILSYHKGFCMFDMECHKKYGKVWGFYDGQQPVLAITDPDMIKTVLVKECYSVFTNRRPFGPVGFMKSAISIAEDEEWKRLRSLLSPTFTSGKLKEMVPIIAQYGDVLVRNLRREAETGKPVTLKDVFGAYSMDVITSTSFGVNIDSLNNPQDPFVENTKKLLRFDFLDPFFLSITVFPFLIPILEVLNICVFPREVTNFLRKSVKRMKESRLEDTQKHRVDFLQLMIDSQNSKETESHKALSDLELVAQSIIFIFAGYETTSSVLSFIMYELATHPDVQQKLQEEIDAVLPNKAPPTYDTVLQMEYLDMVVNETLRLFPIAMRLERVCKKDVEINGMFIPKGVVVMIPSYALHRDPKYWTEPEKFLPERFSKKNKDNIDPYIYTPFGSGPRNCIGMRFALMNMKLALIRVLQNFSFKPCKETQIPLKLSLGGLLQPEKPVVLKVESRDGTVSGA
Assay: Cytochrome P450 inhibition assay
Assay type: in vitro ADME
Settings: isoform 3A4, substrate Midazolam
result-type: IC50 (nM)
One number for each entry, in nM.

[Q] Value lookup for IC50; key = CN1CCCC1CCNC(=O)c1cn2c3c(c(N4CCC(c5cnccn5)C4)c(F)cc3c1=O)Oc1cc3ccccc3cc1-2 (stereo not shown) [CX-3543]
[A] 1400

* * *

Assay: Pharmacokinetic/toxicokinetic evaluation in rats
Type: in vivo
Settings: male, rat, plasma, iv, 7.6 mg/kg, male, IV, Dose 1 (medium dose group, 7.6 mg/kg), read-out: terminal half-life (converted)
result-type: half-life

[Q] Value lookup for half-life; key = CN1CCCC1CCNC(=O)c1cn2c3c(c(N4CCC(c5cnccn5)C4)c(F)cc3c1=O)Oc1cc3ccccc3cc1-2 (stereo not shown)
[A] 6.8 h

* * *

Test system: panel of cancer cell-lines
Assay: MTS cell survival assay, panel of cancer cell-lines
Assay type: cell-based
Settings: Homo sapiens, 96 h; MDA-MB-231 (Breast), 4 days, MTS
result-type: pIC50
Give bare numbers, as −log10 of the molar value.

[Q] Value lookup for pIC50; key = CN1CCCC1CCNC(=O)c1cn2c3c(c(N4CCC(c5cnccn5)C4)c(F)cc3c1=O)Oc1cc3ccccc3cc1-2 (stereo not shown)
[A] 5.62

* * *

Target: c-Myc template DNA (c-myc quadruplex)
Test: Quadruplex binding / stop assay (Taq polymerase arrest, capillary electrophoresis)
Conditions: read-out: Stop Data c-Myc μM; concentration at which 50% of the DNA was arrested (arrested:full-length 1:1)
result-type: IC50 (µM)
Numbers only, in µM.

INSERT INTO measurements (compound, result_type, recorded_value) VALUES
  ('CN1CCN(CCCNc2c(F)cc3c(=O)c(C(=O)N4CC[C@@H](NC(=O)OC(C)(C)C)C4)cn4c3c2Oc2cc3ccccc3cc2-4)CC1 [compound 61]', 'IC50', 2.5);

Okay, here is my list. What is IC50 for each of these?
1. CN1CCN(CCCNCCC(=O)N[C@@H]2CCN(c3c(F)cc4c(=O)c(C(=O)NCCN5CCCC5)cn5c4c3Oc3cc4c(cc3-5)oc3ccccc34)C2)CC1 [compound 403]
2. CN(C)CCCCNc1c(F)cc2c(=O)c(C(=O)N3CC[C@H](N)C3)cn3c4cc5c(cc4oc1c23)c(=O)c1ccccc15 [compound 217]

[A]
1: 0.75; 2: 1.75

Okay, here is my list. What is IC50 for each of these?
1. N[C@@H]1CCN(c2c(F)cc3c(=O)c(C(=O)NCCN4CCOCC4)cn4c3c2Oc2cc3ccccc3cc2-4)C1 [compound 390]
2. CN1CCCC1CCNC(=O)c1cn2c3c(c(N4CCC(N)C4)c(F)cc3c1=O)Oc1cc3ccccc3cc1-2 (stereo not drawn) [compound 540]
3. CN1CCN(CCCNC(=O)c2cn3c4c(c(N5CCC(NC(=O)OC(C)(C)C)C5)c(F)c(N)c4c2=O)Oc2cc4ccccc4cc2-3)CC1 (stereo not drawn) [compound 231]

[A]
[0.75, 0.375, 1.75]

* * *

Molecular target: c-Myc template DNA (c-myc quadruplex)
Assay: Quadruplex binding / stop assay (Taq polymerase arrest, capillary electrophoresis)
Conditions: read-out: Stop Data c-Myc μM; concentration at which 50% of the DNA was arrested (arrested:full-length 1:1)
result-type: IC50

INSERT INTO measurements (molecule, recorded_value) VALUES
  ('CC1(C)CC(NC(=O)c2cn3c4c(c(N5CCC(NC(=O)OC(C)(C)C)C5)c(F)cc4c2=O)Oc2cc4ccccc4cc2-3)CC(C)(C)N1 (stereo not shown) [compound 182]', '1.75 µM'),
  ('CN(CCCNc1c(F)cc2c(=O)c(C(=O)NCCC3CCCN3C)cn3c2c1Oc1cc2ccccc2cc1-3)c1ccccc1 (stereo not shown) [compound 263]', '1.75 µM'),
  ('CN(C)CCCCNC(=O)c1cn2c3c(c(NCCN4CCOCC4)c(F)cc3c1=O)Oc1cc3ccccc3cc1-2 [compound 59]', '2.5 µM');

Okay, here is my list. What is IC50 for each of these?
1. CN1CCCC1CCNc1c(F)cc2c(=O)c(C(=O)NCCCN3CCOCC3)cn3c4cc5c(cc4oc1c23)c(=O)c1ccccc15 (stereo not shown) [compound 523]
2. CN1CCCC1CCNC(=O)c1cn2c3c(c(N4CC[C@@H](NC(=O)OC(C)(C)C)C4)c(F)cc3c1=O)Oc1c-2ccc2ccccc12 (stereo partly shown) [compound 132]

[A]
1: 0.375 µM; 2: 1.75 µM

Okay, here is my list. What is IC50 for each of these?
1. CN1CCCC1CCNC(=O)c1cn2c3c(c(NC[C@@H]4CCCO4)c(F)cc3c1=O)Oc1cc3ccccc3cc1-2 (stereo partly shown) [compound 33]
2. CN1CCCC1CCNc1ccc2c(=O)c(C(=O)NCCCN3CCOCC3)cn3c2c1Oc1cc2ccccc2cc1-3 (stereo not shown) [compound 269]
3. COc1ccc2[nH]cc(CCNc3c(F)cc4c(=O)c(C(=O)NCCC5CCCN5C)cn5c4c3Oc3cc4ccccc4cc3-5)c2c1 (stereo not shown) [compound 290]
4. N[C@@H]1CCN(c2c(F)cc3c(=O)c(C(=O)NCCN4CCOCC4)cn4c3c2Oc2c-4ccc3ccccc23)C1 [compound 77]
5. CN1CCCC1CCNCC(=O)N[C@@H]1CCN(c2c(F)cc3c(=O)c(C(=O)N4CCCCC4)cn4c3c2Oc2cc3c(cc2-4)oc2ccccc23)C1 (stereo partly shown) [compound 413]
6. CN(C)CCCCNC(=O)c1cn2c3c(c(NCCCCN(C)C)ccc3c1=O)Oc1cc3ccccc3cc1-2 [compound 277]
7. CN1CCC[C@@H]1CCNC(=O)c1cn2c3c(c(N4CCC(c5cnccn5)C4)c(F)cc3c1=O)Oc1cc3ccccc3cc1-2 (stereo partly shown) [compound 468]

[A]
1. 3 µM
2. 1.75 µM
3. 1.75 µM
4. 2.5 µM
5. 0.75 µM
6. 1.75 µM
7. 0.74 µM

[Q] Value lookup for IC50; key = CN(C)CCCCNc1c(F)cc2c(=O)c(C(=O)NCCC3CCCN3C)cn3c4cc5c(=O)c6ccccc6c(=O)c5cc4oc1c23 (stereo not shown) [compound 354]
[A] 0.9 µM
